The reported numbers originate from patent US7998903B2.

Parameter: Surface Tension, glycerol-modified silicone/oil agent = 10/90, Rapeseed oil. Scope: all listed entries.
# Procedure Details: Surface tension of silicone/oil agent mixtures, automatic tensiometer, 25 degrees C.
# Format: physicochemical
# Condition Description: 25 C.; silicone/rapeseed oil = 10/90; neat rapeseed oil 31
Quick note: unit goes after the number.

Worked cases, answers included:
Compound: CCC(CO)(CO)COCCC[Si](C)(C)O[Si](C)(C)C
Experimental Value: 26.9 mN/m

Compound: CCCCCCCC[Si](C)(O[Si](C)(C)C)O[Si](C)(C)C
Experimental Value: 24.5 mN/m

Compound: CCC(CO)(CO)COCCC[Si](C)(O[Si](C)(C)C)O[Si](C)(C)C
Experimental Value: 25.3 mN/m

Compound: CC(CCO)C[Si](C)(O[Si](C)(C)C)O[Si](C)(C)C (centres unmarked)
Experimental Value: 24.9 mN/m

// below: Surface Tension, glycerol-modified silicone/oil agent = 10/90, Rapeseed oil requested for another compound
[Q] State its Surface Tension, glycerol-modified silicone/oil agent = 10/90, Rapeseed oil: C[Si](C)(C)O[Si](C)(C)CCCOCC(O)CO (centres unmarked)
[A] 22.6 mN/m

###

# Procedure Details: Surface tension of silicone/oil agent mixtures, automatic tensiometer, 25 degrees C.
# Assay type: physicochemical
# Condition Description: 25 C.; silicone/soybean oil = 10/90; neat soybean oil 31.8
Observable: Surface Tension, glycerol-modified silicone/oil agent = 10/90, Soybean oil (mN/m)
Only the number, expressed in mN/m, is required.

Consider the worked cases shown below.
Compound: CCCCCCCC[Si](C)(O[Si](C)(C)C)O[Si](C)(C)C
Unit Text: mN/m
Experimental Value: 24.9

Compound: CC(CCO)C[Si](C)(O[Si](C)(C)C)O[Si](C)(C)C (centres unmarked)
Unit Text: mN/m
Experimental Value: 24.3

Compound: CCC(CO)(CO)COCCC[Si](C)(O[Si](C)(C)C)O[Si](C)(C)C
Unit Text: mN/m
Experimental Value: 26

Compound: C[Si](C)(C)O[Si](C)(C)CCCOCC(O)CO (centres unmarked)
Unit Text: mN/m
Experimental Value: 21.9

For the next question, use this compound.
[Q] Supply Surface Tension, glycerol-modified silicone/oil agent = 10/90, Soybean oil value. Item: `CCC(CO)(CO)COCCC[Si](C)(C)O[Si](C)(C)C`
[A] 27.5

###

# Procedure Details: Surface tension of silicone/oil agent mixtures, automatic tensiometer, 25 degrees C.
# Type: physicochemical
# Condition Description: 25 C.; silicone/liquid paraffin = 10/90; neat liquid paraffin 27.9
Catalogue of molecules with associated Surface Tension, glycerol-modified silicone/oil agent = 10/90, Liquid paraffin
Give just the numeric value; mN/m need not be written.

Molecule: CCC(CO)(CO)COCCC[Si](C)(C)O[Si](C)(C)C
Experimental Value: 23
//
Molecule: CC(CCO)C[Si](C)(O[Si](C)(C)C)O[Si](C)(C)C (centres unmarked)
Experimental Value: 23.7
//
Molecule: CCC(CO)(CO)COCCC[Si](C)(O[Si](C)(C)C)O[Si](C)(C)C
Experimental Value: 22.1
//
Molecule: CCCCCCCC[Si](C)(O[Si](C)(C)C)O[Si](C)(C)C
Experimental Value: 25.5
//
Molecule: CCCCCCCC[Si](C)(C)O[Si](C)(C)O[Si](C)(C)C
Experimental Value: 25
//
Molecule: C[Si](C)(C)O[Si](C)(C)CCCOCC(O)CO (centres unmarked)
Experimental Value: 21.3
//
Molecule: CCCCCCCCCCCC[Si](C)(O[Si](C)(C)C)O[Si](C)(C)C
Experimental Value: 26.3

Next molecule, please.
[Q] Return value of Surface Tension, glycerol-modified silicone/oil agent = 10/90, Liquid paraffin for input `C[Si](C)(C)O[Si](C)(CCCCCO)O[Si](C)(C)C` , no commentary.
[A] 25.4
